Target: T1, MPP7, Q5T2T1
T1 sequence (Q5T2T1 134-230, limits assumed, looked up): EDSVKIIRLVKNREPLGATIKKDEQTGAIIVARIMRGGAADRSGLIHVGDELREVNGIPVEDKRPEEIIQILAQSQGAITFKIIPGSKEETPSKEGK
Experiment: holdup assay
Design: key: below the threshold = too weak to quantify, mostly under pKd 3.1 to 4
Conditions: plain residues with an end cap or a label only (N-terminal biotin on a linker: ado-ado)
property_name: pKd

Previously resolved entries follow.
>  <binder>
RRISSLESEV [GRIN2C, Q14957]

>  <value_observed>
below the threshold

$$$$
>  <binder>
LPHGHSTTRV [NLGN4X, Q8N0W4]

>  <value_observed>
below the threshold

$$$$
>  <binder>
TKGPRGPTRV [SAPCD1, Q5SSQ6]

>  <value_observed>
below the threshold

$$$$
>  <binder>
LRSPRTPSEV [OR10G3, Q8NGC4]

>  <value_observed>
below the threshold

$$$$

Batch request: pKd for each of the following binders.
1. QSLNRMEYIV [JAG1, P78504]
2. SARSRLSSNL [HCN2, Q9UL51]
3. VYPNAKVELV [PDLIM4_iso2, P50479;P50479-1]
4. RHGSCVETSL [TMEM151B, Q8IW70]
5. TACCHSETVV [TGFA, P01135]
6. QSPANIYYKV [EFNB1, P52799]
7. ETQVTAETVI [TMEM225B, P0DP42]
8. PPYRHRNTVV [ERBB4, Q15303]

Out:
[3.98, "below the threshold", "below the threshold", "below the threshold", "below the threshold", 3.61, "below the threshold", "below the threshold"]
